The origin of these recorded values is patent US12692274B2.

Measured log10 of EC50, listed per entry for reference.
System: NQO1 activation in BEAS-2B cells
Experiment: BEAS-2B cellular MTT assay of NQO1 activation, 0.3% HSA
Format: cell-based
Details: Homo sapiens, BEAS+, read-out: BEAS+ EC50
In our notation, the value equals log10 of EC50 in nM.

stdin: Field request: log10 of EC50 | item: Cc1c2ccc3c1nnn3CCCCCCOc1ccc(nc1)C(=O)N1CCc3ccc(cc3C1)C2CC(=O)O (stereo not drawn)
stdout: 3.05

###

# key: entry, value: pIC50
Target: HIS-Keap1 full length / Biotin-Nrf2 (16-mer) (Homo sapiens)
Sequence (Q14145 whole entry): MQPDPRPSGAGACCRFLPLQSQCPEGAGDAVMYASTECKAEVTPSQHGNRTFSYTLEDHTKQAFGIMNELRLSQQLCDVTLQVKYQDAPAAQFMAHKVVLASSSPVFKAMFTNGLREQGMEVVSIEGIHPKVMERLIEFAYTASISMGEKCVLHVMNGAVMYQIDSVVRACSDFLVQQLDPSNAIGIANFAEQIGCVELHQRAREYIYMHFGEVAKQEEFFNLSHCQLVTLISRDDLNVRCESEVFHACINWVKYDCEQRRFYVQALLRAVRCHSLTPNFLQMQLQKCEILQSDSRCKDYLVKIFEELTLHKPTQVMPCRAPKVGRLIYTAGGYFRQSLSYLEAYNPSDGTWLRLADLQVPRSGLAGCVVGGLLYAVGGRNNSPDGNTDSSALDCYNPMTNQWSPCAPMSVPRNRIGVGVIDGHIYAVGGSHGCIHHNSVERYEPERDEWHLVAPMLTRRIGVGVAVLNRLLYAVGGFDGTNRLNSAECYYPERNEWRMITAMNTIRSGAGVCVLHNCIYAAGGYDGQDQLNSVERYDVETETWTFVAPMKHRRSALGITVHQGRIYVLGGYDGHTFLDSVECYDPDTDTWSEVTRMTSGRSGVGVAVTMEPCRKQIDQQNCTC
Assay: biochemical
pIC50: −log10 of the molar value.

Some compounds with known pIC50 results, for comparison:
[[record]]
compound = "O=C(O)CC1c2cnc(nc2)OCCCCc2cc(F)c(c(F)c2)C(=O)N2CCc3ccc1cc3C2 (stereo not drawn)"
test_system = "HIS-Keap1 full length / Biotin-Nrf2 (16-mer) (Homo sapiens)"
result = "< 6.00"

[[record]]
compound = "Cc1c2ccc3c1nnn3CCCCCCc1ccc(c(F)c1)C(=O)N1CCc3ccc(cc3C1)[C@H]2[C@@H](C)C(=O)O"
test_system = "HIS-Keap1 full length / Biotin-Nrf2 (16-mer) (Homo sapiens)"
result = "< 6.00"


Moving on to the next compound.
stdin: Value lookup for pIC50; key = Cc1c2ccc(c1C)C(=O)N1CCc3ccc(cc3C1)C(CC(=O)O)c1ccc3c(c1)nnn3CCCCCCO2 (stereo not drawn)
stdout: > 10.00
